Measurement target: rat B1R (bradykinin receptor 1) (Rattus norvegicus, UniProt P97583)
Construct: expressed in transfected cells; host or cells: CHO K1 cells
Protocol text: FLIPR Ca2+ assay (Fluo-4) on CHO K1 cells stably transfected with the B1R gene of the rat (rB1R cells): % inhibition at 10 μM / IC50, agonist Des-Arg9-bradykinin
Type: cell-based
Test context: CHO-K1, rat B1R
Assignment: determine reported inhibition at 10 µM for the given compounds.
Answers are plain numbers, in %.

I'm hoping you can list inhibition at 10 µM for every compound here, please.
1. O=C(NC1CCc2ccc(C(=O)N3CCC4(CCN(Cc5ccc6nccnc6c5)CC4)C3)cc21)c1sccc1Cl (stereo not shown) [IND_CC-571]
2. N#Cc1cccc(CN2CCC3(CC2)CCN(C(=O)c2ccc4c(c2)C(NC(=O)c2ccccc2Cl)CC4)CC3)c1 (stereo not shown) [IND_CC-534]
3. O=C(NC1CCc2ccc(C(=O)N3CCC4(CC3)CCN(c3ccc(C(F)(F)F)cc3)CC4)cc21)c1ccccc1Cl (stereo not shown) [IND_CC-290]

Output:
[52, 102, 100]

I'm hoping you can list inhibition at 10 µM for every compound here, please.
1. N#Cc1ccccc1CN1CCC2(CC1)CCN(C(=O)c1ccc3c(c1)C(NC(=O)c1cc(C(F)(F)F)ccc1Cl)CC3)CC2 (stereo not shown) [IND_CC-668]
2. CC1(C)Cc2ccc(C(=O)N3CCC4(CC3)CCN(c3ccncc3)CC4)cc2C1NC(=O)c1c(Cl)cccc1C(F)(F)F (stereo not shown) [IND_CC-206]
3. CC1(C)CC(NC(=O)c2c(Cl)cccc2Cl)c2cc(C(=O)N3CCC4(CC3)CCN(c3ccncc3)CC4)ccc21 (stereo not shown) [IND_CC-288]
4. Cc1ccc(F)c(C(=O)NC2CCc3ccc(C(=O)N4CCC5(CC4)CCN(c4ccncc4)C5)cc32)c1Cl (stereo not shown) [IND_CC-215]
5. Cc1ccccc1C(=O)N(C)C1CCc2ccc(C(=O)N3CCC4(CC3)CCN(c3ccncc3)CC4)cc21 (stereo not shown) [IND_CC-345]

Output:
[57, 103, 106, 103, 105]

---

Measurement target: rat B1R (bradykinin receptor 1) (Rattus norvegicus, UniProt P97583)
Construct: expressed in transfected cells; host or cells: CHO K1 cells
Sequence (P97583 1-337): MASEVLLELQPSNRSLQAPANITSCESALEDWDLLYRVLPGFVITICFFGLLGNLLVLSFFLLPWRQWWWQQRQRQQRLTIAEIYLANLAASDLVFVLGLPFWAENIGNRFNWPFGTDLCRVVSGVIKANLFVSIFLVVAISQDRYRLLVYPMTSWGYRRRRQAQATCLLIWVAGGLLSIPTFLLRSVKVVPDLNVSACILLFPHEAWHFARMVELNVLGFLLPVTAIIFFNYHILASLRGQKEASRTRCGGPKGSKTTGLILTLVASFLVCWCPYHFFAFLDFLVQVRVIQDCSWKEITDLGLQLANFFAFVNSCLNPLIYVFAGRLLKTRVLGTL
Protocol text: FLIPR Ca2+ assay (Fluo-4) on CHO K1 cells stably transfected with the B1R gene of the rat (rB1R cells): % inhibition at 10 μM / IC50, agonist Des-Arg9-bradykinin
Assay type: cell-based
Test context: CHO-K1, rat B1R
Endpoint label: inhibition at 10 µM (%)
Answers are plain numbers, in %.

Observe how each entry below is paired with its result.
CN(C)c1ncc(CN2CCC3(CC2)CCN(C(=O)c2ccc4c(c2)C(NC(=O)c2c(F)cccc2Cl)CC4)C3)cn1 (stereo not shown); 80
O=C(NC1CCc2ccc(C(=O)N3CCC4(CCN(c5ccncc5)CC4)C3)cc21)c1cccc(C(F)(F)F)c1Cl (stereo not shown); 100

I'm hoping you can list inhibition at 10 µM for every compound here, please.
1. N#Cc1ccc(CN2CCC3(CC2)CCN(C(=O)c2ccc4c(c2)C(NC(=O)c2ccccc2Cl)CC4)CC3)cc1 (stereo not shown)
2. CN(C(=O)c1ccccc1F)C1CCc2ccc(C(=O)N3CCC4(CC3)CCN(c3ccncc3)CC4)cc21 (stereo not shown)
3. O=C(NC1CCc2ccc(C(=O)N3CCC4(CCN(Cc5c[nH]cn5)CC4)CC3)cc21)c1cc(Cl)ccc1F (stereo not shown)
4. CN(C(=O)C1CC1)C1CCc2ccc(C(=O)N3CCC4(CC3)CCN(c3ccncc3)CC4)cc21 (stereo not shown)
5. CN(C(=O)c1ccc(C(F)(F)F)cn1)C1CCc2ccc(C(=O)N3CCC4(CC3)CCN(c3ccncc3)CC4)cc21 (stereo not shown)
6. Cn1nnc2cc(CN3CCC4(CC3)CCN(C(=O)c3ccc5c(c3)C(NC(=O)c3cc(Cl)ccc3F)CC5)C4)ccc21 (stereo not shown)
7. Cc1cccc(Cl)c1C(=O)NC1CCc2ccc(C(=O)N3CCC4(CCN(Cc5cnn(C)c5C)CC4)C3)cc21 (stereo not shown)

Output:
1: 74; 2: 103; 3: 50; 4: 74; 5: 58; 6: 67; 7: 76

I'm hoping you can list inhibition at 10 µM for every compound here, please.
1. CCC(CC)C(=O)NC1CCc2ccc(C(=O)N3CCC4(CCN(c5ccncc5)CC4)C3)cc21 (stereo not shown)
2. Cc1cccc(Cl)c1S(=O)(=O)NC1CC(C)(C)c2ccc(C(=O)N3CCC4(CC3)CCN(c3ccncc3)CC4)cc21 (stereo not shown)

Output:
1: 100; 2: 100

I'm hoping you can list inhibition at 10 µM for every compound here, please.
1. O=C(NC1CCc2ccc(C(=O)N3CCC4(CC3)CCN(c3ccncc3)CC4)cc21)c1sccc1Cl (stereo not shown)
2. CC1(C)Cc2ccc(C(=O)N3CCC4(CC3)CCN(c3ccncc3)CC4)cc2C1NC(=O)c1ccccc1Cl (stereo not shown)
3. Cc1c(CN2CCC3(CC2)CCN(C(=O)c2ccc4c(c2)C(NC(=O)c2ccccc2Cl)CC4)CC3)cnn1C (stereo not shown)
4. CN(C(=O)c1ccccc1Cl)C1CCc2ccc(C(=O)N3CCC4(CCN(c5ccncc5)CC4)C3)cc21 (stereo not shown)

Output:
98
104
81
101

I'm hoping you can list inhibition at 10 µM for every compound here, please.
1. O=C(NC1CCc2ccc(C(=O)N3CCC4(CCN(C(=O)Nc5ccc(F)cc5F)CC4)CC3)cc21)c1ccccc1Cl (stereo not shown)
2. O=C(c1ccc2c(c1)[C@H](NS(=O)(=O)Cc1ccccc1Cl)CC2)N1CCC2(CCN(c3ccncc3)CC2)C1

Output:
[94, 100]

---

Assignment: determine reported inhibition at 10 µM for the given molecules.
Measurement target: rat B1R (bradykinin receptor 1) (Rattus norvegicus, UniProt P97583)
Construct: expressed in transfected cells; host or cells: CHO K1 cells
Protocol text: FLIPR Ca2+ assay (Fluo-4) on CHO K1 cells stably transfected with the B1R gene of the rat (rB1R cells): % inhibition at 10 μM / IC50, agonist Des-Arg9-bradykinin
Type: cell-based
Test context: CHO-K1, rat B1R
Give bare numbers, in %.

Observe how each entry below is paired with its result.
O=C(N[C@@H]1CCc2ccc(C(=O)N3CCC4(CC3)CCN(c3ccncc3)C4)cc21)c1cncnc1 [Example H-86]; 79
CN(C(=O)CCC1CCCC1)C1CCc2ccc(C(=O)N3CCC4(CC3)CCN(c3ccncc3)CC4)cc21 (stereo not shown) [IND_CC-412]; 99
O=C(NC1CCc2ccc(C(=O)N3CCC4(CCN(c5ccncc5)CC4)C3)cc21)C(c1ccccc1)c1ccccc1Cl (stereo not shown) [Ind_CC-082]; 101
O=C(NC1CCc2ccc(C(=O)N3CCC4(CCN(Cc5cc(F)ccc5F)CC4)C3)cc21)c1sccc1Cl (stereo not shown) [IND_CC-547]; 71

I'm hoping you can list inhibition at 10 µM for every molecule here, please.
1. CN(C(=O)c1ccccc1Cl)C1CCc2ccc(C(=O)N3CCC4(CCN(C(=O)c5ccc(F)cc5Cl)CC4)C3)cc21 (stereo not shown) [IND_CC-591]
2. COc1cc(C)c(S(=O)(=O)NC2CCc3ccc(C(=O)N4CCC5(CC4)CCN(c4ccncc4)CC5)cc32)c(C)c1 (stereo not shown) [Ind_CC-001]

Output:
1. 62
2. 98

I'm hoping you can list inhibition at 10 µM for every molecule here, please.
1. O=C(NC1CCc2ccc(CC(=O)N3CCC4(CCN(Cc5ccc6nccnc6c5)CC4)C3)cc21)c1ccccc1Cl (stereo not shown) [IND_CC-805]
2. O=C(NC1CCCCC1)N1CCC2(CC1)CCN(C(=O)c1ccc3c(c1)C(N(C(=O)c1ccccc1Cl)C1CC1)CC3)C2 (stereo not shown) [IND_CC-717]
3. CC1(C)Cc2ccc(C(=O)N3CCC4(CC3)CCN(c3ccncc3)CC4)cc2C1NC(=O)c1ccc(Cl)s1 (stereo not shown) [Ind_CC-066]
4. O=C(NC1CCc2ccc(C(=O)N3CCC4(CCN(Cc5ccncc5)CC4)CC3)cc21)c1c(F)cccc1Cl (stereo not shown) [IND_CC-785]

Output:
1. 51
2. 72
3. 98
4. 98

I'm hoping you can list inhibition at 10 µM for every molecule here, please.
1. O=C(NC1CCc2ccc(C(=O)N3CCC4(CC3)CCN(c3ccc(C(F)(F)F)cc3)CC4)cc21)c1cc(Cl)ccc1Cl (stereo not shown) [IND_CC-209]
2. O=C(NCc1ccccc1Cl)NC1CCc2ccc(C(=O)N3CCC4(CCN(c5ccncc5)CC4)C3)cc21 (stereo not shown) [Ind_CC-086]
3. O=C(N[C@@H]1CCc2ccc(C(=O)N3CCC4(CCN(c5ccncc5)CC4)C3)cc21)c1cc(Cl)ccc1Cl [Example H-98]

Output:
[102, 99, 108]
